Source: patent US20070014720A1

Please provide measured EC50 µg/ml Raji CDC for the entries that follow.
Molecular target: T1, human CD20 (human, UniProt P11836 1-297)
T1 sequence (looked up): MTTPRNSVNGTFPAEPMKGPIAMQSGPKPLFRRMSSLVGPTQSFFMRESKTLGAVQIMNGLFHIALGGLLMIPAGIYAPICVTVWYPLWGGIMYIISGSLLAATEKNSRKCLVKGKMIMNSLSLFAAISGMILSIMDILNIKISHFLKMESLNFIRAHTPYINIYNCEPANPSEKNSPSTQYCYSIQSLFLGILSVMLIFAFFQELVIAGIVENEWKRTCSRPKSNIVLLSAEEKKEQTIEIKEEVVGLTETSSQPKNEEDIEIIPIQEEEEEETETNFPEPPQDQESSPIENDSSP
Assay: cell-based or functional assay
One number for each entry, in µg/mL.

The following binders have reported results that may help.
Binder | EC50 µg/ml Raji CDC, µg/mL
mAb 1.13.2 (antibody, human IgG1, V domains shown, Human IgG1 kappa; also called 1.13.1; 50-001H1_13_1) VH: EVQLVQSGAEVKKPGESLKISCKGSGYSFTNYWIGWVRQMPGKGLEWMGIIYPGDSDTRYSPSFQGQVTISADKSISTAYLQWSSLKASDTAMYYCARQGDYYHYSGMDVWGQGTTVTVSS VL: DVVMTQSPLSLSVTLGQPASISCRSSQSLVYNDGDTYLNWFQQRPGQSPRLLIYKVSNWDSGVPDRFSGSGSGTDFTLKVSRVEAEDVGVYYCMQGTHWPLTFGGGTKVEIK | 3.54
mAb 1.6.2 (antibody, human IgG1, V domains shown) VH: EVQLVQSGAEVKKPGESLKISCKGSGYSFTSYWIGWVRQMPGKGLEWMGIIYPGDSDTRYSPSFQGQVTISADKSISTAYLQWSSLKASDTAMYYCARHGDYSNIDAFDIWGQGTMVTVSS VL: DVVMTQSPLSLPVTLGQPASISCRSSQSLVYSDGNAYLNWFQQRPGQSPRRLIYKVSNWDSGVPDRFSGSGSGTDFTLKIRRVEAEDVGAYYCMQGIHCTFGPGTKVHIK | 0.38

Task: Name the reported EC50 µg/ml Raji CDC value associated with the binder mAb 2.1.2 (ATCC Accession Number PTA-7328) (antibody, human IgG1, V domains shown, Human IgG1 kappa; also called 2.1.1; 50-001H2_1_1) VH: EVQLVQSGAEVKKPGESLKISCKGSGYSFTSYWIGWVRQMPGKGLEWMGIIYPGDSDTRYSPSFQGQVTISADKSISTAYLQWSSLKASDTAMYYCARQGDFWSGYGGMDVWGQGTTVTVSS VL: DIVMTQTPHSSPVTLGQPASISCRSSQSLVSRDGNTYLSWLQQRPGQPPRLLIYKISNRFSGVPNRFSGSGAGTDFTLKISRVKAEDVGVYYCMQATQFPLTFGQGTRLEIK
Output: 0.3
